assay: Oral bioavailability in nude mouse xenografted with human HCT116 cells at 20 mg/kg; format: ADME, organism-based, HCT-116; settings: in vivo
Experimental Readout: bioavailability (%)
Report as a plain number; the unit % is understood.

>>> assay_result("CC(C)(C)c1[nH]c2ncccc2c1CCNCc1ccc(/C=C/C(=O)NO)cc1")
4
>>> assay_result("CC(C)N(CCc1c(C(C)(C)O)[nH]c2ccccc12)Cc1ccc(/C=C/C(=O)NO)cc1")
4

Next molecule, please.
response.value for `Cc1nn2ccccc2c1CCNCc1ccc(/C=C/C(=O)NO)cc1` (field: bioavailability) = 2

----------
assay: Volume of distribution at steady state in nude mouse xenografted with human HCT116 cells at 5 mg/kg, iv; format: ADME, organism-based, HCT-116; parameters: dose 5 mg/kg, route intravenous; details: in vivo, read-out: Vdss
// Vd lookup, one value per entry
Answer with a number only, understood to be in L/kg.

Example cases with answers are listed next.
>>> assay_result("CC(C)(C)c1[nH]c2ncccc2c1CCNCc1ccc(/C=C/C(=O)NO)cc1")
4.5
>>> assay_result("CC(C)N(CCc1c(C(C)(C)O)[nH]c2ccccc12)Cc1ccc(/C=C/C(=O)NO)cc1")
5.9

Shifting focus to the molecule that follows.
Reported Vd of `Cc1nn2ccccc2c1CCNCc1ccc(/C=C/C(=O)NO)cc1` : 1.46

----------
test: AUC in nude mouse xenografted with human HCT116 cells at 20 mg/kg, po; format: ADME, organism-based, HCT-116; parameters: dose 20 mg/kg, route oral; conditions: in vivo
AUC values, listed per item
I only need the number, in µM·h, no unit after it.

Some compounds with recorded AUC:
>>> assay_result("CC(C)(C)c1[nH]c2ncccc2c1CCNCc1ccc(/C=C/C(=O)NO)cc1")
0.474
>>> assay_result("CC(C)N(CCc1c(C(C)(C)O)[nH]c2ccccc12)Cc1ccc(/C=C/C(=O)NO)cc1")
0.0653

Now consider a different compound.
Consider `Cc1nn2ccccc2c1CCNCc1ccc(/C=C/C(=O)NO)cc1` . Its measured AUC is 0.362

----------
# maps each entry to its Cmax
assay: Cmax in nude mouse xenografted with human HCT116 cells at 20 mg/kg, po; format: ADME, organism-based, HCT-116; design: dose 20 mg/kg, route oral; conditions: in vivo
Reply numerically in nM, unit not repeated.

See these solved cases before continuing.
>>> assay_result("CC(C)(C)c1[nH]c2ncccc2c1CCNCc1ccc(/C=C/C(=O)NO)cc1")
849
>>> assay_result("Cc1nn2ccccc2c1CCNCc1ccc(/C=C/C(=O)NO)cc1")
202

Read the next record carefully.
For reference, reported Cmax for `CC(C)N(CCc1c(C(C)(C)O)[nH]c2ccccc12)Cc1ccc(/C=C/C(=O)NO)cc1` stands at 56

----------
Here, each record is paired with measured half-life data.
experiment: Half life in nude mouse xenografted with human HCT116 cells at 5 mg/kg, iv; assay type: ADME, organism-based, HCT-116; design: dose 5 mg/kg, route intravenous; conditions: in vivo
# output: bare number, implied unit h

>>> assay_result("CC(C)(C)c1[nH]c2ncccc2c1CCNCc1ccc(/C=C/C(=O)NO)cc1")
3.3

Form field half-life, entry `CC(C)N(CCc1c(C(C)(C)O)[nH]c2ccccc12)Cc1ccc(/C=C/C(=O)NO)cc1` : 1

Lab book: half-life of `Cc1nn2ccccc2c1CCNCc1ccc(/C=C/C(=O)NO)cc1` noted as 1.44

----------
assay: Half life in Sprague-Dawley rat at 5 mg/kg, iv; assay type: ADME, organism-based; parameters: dose 5 mg/kg, route intravenous; details: in vivo
Experimental Readout: half-life (h)
Answer with a number only, understood to be in h.

For `CC(C)N(CCc1c(C(C)(C)O)[nH]c2ccccc12)Cc1ccc(/C=C/C(=O)NO)cc1` the compound record lists half-life as 1.3

----------
experiment: Dissociation constant, pKa of the compound; type: physicochemical
If the reported pKa equals or exceeds 6, assign y. If not, assign n.

Please review the following examples before continuing.
>>> class_assignment("O=C(/C=C/c1ccc(CN(CCO)CCc2c[nH]c3ccccc23)cc1)NO [DACINOSTAT]")
"y"
>>> class_assignment("Cc1[nH]c2ccccc2c1CCN(Cc1ccc(/C=C/C(=O)NO)cc1)CC(F)F")
"n"

Exam item: Hello, I need to know if `Cc1[nH]c2ccccc2c1CCN(CCC(F)F)Cc1ccc(/C=C/C(=O)NO)cc1` has measured pKa not below 6. Thanks!
Marked response: n

Exam item: Reported pKa at or above 6? `CCCN(CCc1c[nH]c2ccccc12)Cc1ccc(/C=C/C(=O)NO)cc1`
Marked response: y

Exam item: Decide: is the reported value of pKa for `O=C(/C=C/c1ccc(CN(CCc2c[nH]c3ccccc23)CC(F)(F)F)cc1)NO` equal to or greater than 6?
Marked response: n

Exam item: Dear colleague, could you confirm whether `O=C(/C=C/c1ccc(CN(CCc2c[nH]c3ccccc23)CCC(F)(F)F)cc1)NO` has pKa at or above 6?
Marked response: n

Exam item: Decide: is the reported value of pKa for `O=C(/C=C/c1ccc(CNCCc2c[nH]c3ccccc23)cc1)NO` equal to or greater than 6?
Marked response: y

----------
assay: Solubility of compound at pH 6.8; type: physicochemical; settings: buffer
Experimental Readout: solubility

Entry `Cc1nn2ccccc2c1CCNCc1ccc(/C=C/C(=O)NO)cc1` , solubility reported as > 1 mg/mL

----------
assay: Clearance in Sprague-Dawley rat at 5 mg/kg, iv; assay type: ADME, organism-based; design: dose 5 mg/kg, route intravenous; conditions: in vivo
Experimental Readout: clearance (mL/min/kg)
# output: bare number, implied unit mL/min/kg

Kindly note the recorded clearance for `CC(C)N(CCc1c(C(C)(C)O)[nH]c2ccccc12)Cc1ccc(/C=C/C(=O)NO)cc1` , which is 66

----------
assay: Volume of distribution at steady state in Sprague-Dawley rat at 5 mg/kg, iv; assay type: ADME, organism-based; set-up: dose 5 mg/kg, route intravenous; conditions: in vivo, read-out: Vdss
Experimental Readout: Vd (L/kg)
Reply numerically in L/kg, unit not repeated.

The compound identified as `CC(C)N(CCc1c(C(C)(C)O)[nH]c2ccccc12)Cc1ccc(/C=C/C(=O)NO)cc1` registered its Vd at 7

----------
assay: Metabolic stability in plasma of nude mouse xenografted with human HCT116 cells assessed as compound remaining after 3 hrs; format: ADME, cell-free, HCT-116; conditions: read-out: Stability
Experimental Readout: remaining at 3 h (%)
Write the answer as a number in %, unit excluded.

# remaining at 3 h (compound: `CC(C)N(CCc1c(C(C)(C)O)[nH]c2ccccc12)Cc1ccc(/C=C/C(=O)NO)cc1` ) is 54

----------
test system: Canis familiaris; test: Plasma concentration in dog at 150 mg/kg, po administered as single dose; type: ADME, organism-based, Canis lupus familiaris; design: dose 150 mg/kg, route oral; settings: in vivo
Experimental Readout: concentration (nM)
// return numeric value only (unit: nM, not printed)

Case O=C(CCCCCCC(=O)Nc1ccccc1)NO [VORINOSTAT] , Canis familiaris, concentration recorded as 960

----------
Entries annotated with measured Cmax
assay: Cmax in Sprague-Dawley rat at 10 mg/kg, po; format: ADME, organism-based; design: dose 10 mg/kg, route oral; conditions: in vivo
Write the number in nM without appending the unit.

>>> assay_result("Cc1nn2ccccc2c1CCNCc1ccc(/C=C/C(=O)NO)cc1")
61

For this compound ( `CC(C)N(CCc1c(C(C)(C)O)[nH]c2ccccc12)Cc1ccc(/C=C/C(=O)NO)cc1` ), measured Cmax is 204

----------
test: Volume of distribution at steady state in Sprague-Dawley rat at 2 mg/kg, iv; assay type: ADME, organism-based; parameters: dose 2 mg/kg, route intravenous; details: in vivo, read-out: Vdss
Experimental Readout: Vd (L/kg)
Output spec: scalar in L/kg, unitless text.

// `Cc1nn2ccccc2c1CCNCc1ccc(/C=C/C(=O)NO)cc1` : Vd value = 1.99

src = ChEMBL document CHEMBL1817582
